Reported IC50 values for a set of molecules
# TARGET UNDER TEST: PI3K γ (Homo sapiens)
# Construct: purchased Sigma
# METHOD DESCRIPTION: In vitro IC50, PI3K γ (p110γ inhibition assay)
# Format: biochemical
# STUDY CONDITIONS: in vitro kinase assay

>  <STRUCTURE STRING>
C[C@H](Nc1ncnc2[nH]cnc12)c1cc2cccc(Cl)c2c(OCC2CCN(S(C)(=O)=O)CC2)n1

>  <IC50>
> 10000 nM

$$$$
>  <STRUCTURE STRING>
Nc1ncnc2c1c(-c1cn[nH]c1)nn2Cc1cc2cccc(Cl)c2c(N2CCOCC2)n1

>  <IC50>
< 1000 nM

$$$$
>  <STRUCTURE STRING>
CS(=O)(=O)N1CCN(c2nc(Cn3nc(-c4cn[nH]c4)c4c(N)ncnc43)cc3cccc(Cl)c23)CC1

>  <IC50>
< 1000 nM

$$$$

----------
# TARGET UNDER TEST: PI3K α (Homo sapiens)
# Construct: purchased Upstate
# Sequence (P42336 whole entry): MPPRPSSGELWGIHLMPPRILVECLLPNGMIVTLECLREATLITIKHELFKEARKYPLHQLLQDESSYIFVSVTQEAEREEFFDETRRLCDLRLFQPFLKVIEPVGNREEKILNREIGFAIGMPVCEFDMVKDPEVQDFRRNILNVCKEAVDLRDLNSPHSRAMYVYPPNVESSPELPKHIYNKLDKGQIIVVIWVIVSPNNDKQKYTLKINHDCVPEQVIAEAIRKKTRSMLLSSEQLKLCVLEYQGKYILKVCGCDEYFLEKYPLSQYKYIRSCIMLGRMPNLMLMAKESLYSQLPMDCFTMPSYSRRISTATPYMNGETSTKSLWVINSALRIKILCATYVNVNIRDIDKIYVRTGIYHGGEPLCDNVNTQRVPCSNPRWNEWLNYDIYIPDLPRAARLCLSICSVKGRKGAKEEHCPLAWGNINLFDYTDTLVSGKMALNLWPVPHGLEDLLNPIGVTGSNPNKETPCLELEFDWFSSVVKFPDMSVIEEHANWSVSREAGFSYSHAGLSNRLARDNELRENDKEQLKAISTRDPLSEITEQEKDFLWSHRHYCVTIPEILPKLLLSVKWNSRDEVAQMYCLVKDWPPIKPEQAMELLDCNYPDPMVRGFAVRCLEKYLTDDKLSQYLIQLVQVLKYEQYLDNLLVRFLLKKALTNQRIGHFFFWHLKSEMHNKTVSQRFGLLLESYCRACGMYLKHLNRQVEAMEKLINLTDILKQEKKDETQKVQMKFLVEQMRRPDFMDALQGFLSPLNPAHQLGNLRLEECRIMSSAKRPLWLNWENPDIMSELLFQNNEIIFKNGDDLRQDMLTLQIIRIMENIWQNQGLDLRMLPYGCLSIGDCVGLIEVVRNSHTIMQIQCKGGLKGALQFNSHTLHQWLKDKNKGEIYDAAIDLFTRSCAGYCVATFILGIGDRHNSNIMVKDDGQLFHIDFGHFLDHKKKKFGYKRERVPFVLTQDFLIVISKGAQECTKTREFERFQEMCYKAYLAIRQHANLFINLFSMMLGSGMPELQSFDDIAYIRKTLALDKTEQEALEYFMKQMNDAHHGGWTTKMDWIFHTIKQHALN
# Sequence (P27986 whole entry partner): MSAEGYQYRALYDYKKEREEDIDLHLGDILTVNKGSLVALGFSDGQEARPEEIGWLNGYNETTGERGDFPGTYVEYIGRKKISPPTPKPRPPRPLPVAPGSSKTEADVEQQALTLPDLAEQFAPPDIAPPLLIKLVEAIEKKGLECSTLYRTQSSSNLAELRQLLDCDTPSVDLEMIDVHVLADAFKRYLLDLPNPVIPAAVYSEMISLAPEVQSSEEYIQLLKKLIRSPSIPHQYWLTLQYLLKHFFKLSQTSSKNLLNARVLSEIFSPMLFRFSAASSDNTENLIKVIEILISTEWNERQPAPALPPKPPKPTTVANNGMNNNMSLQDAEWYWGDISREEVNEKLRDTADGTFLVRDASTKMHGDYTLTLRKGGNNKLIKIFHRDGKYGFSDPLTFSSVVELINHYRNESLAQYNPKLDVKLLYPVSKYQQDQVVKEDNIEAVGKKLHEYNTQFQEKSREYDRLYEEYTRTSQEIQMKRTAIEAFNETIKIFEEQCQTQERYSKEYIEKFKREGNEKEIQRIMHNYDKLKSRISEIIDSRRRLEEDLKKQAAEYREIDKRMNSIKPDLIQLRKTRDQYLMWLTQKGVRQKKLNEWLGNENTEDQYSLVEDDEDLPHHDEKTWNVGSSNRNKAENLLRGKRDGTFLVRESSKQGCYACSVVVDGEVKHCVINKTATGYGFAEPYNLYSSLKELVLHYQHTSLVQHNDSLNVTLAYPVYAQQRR
# METHOD DESCRIPTION: In vitro IC50, PI3K α (p110α/p85α inhibition assay)
# Type: biochemical

>  <COMPOUND>
Cc1cccc2cc(C(C)Nc3ncnc4[nH]cnc34)nc(OC3CCN(C)CC3)c12 (stereo not shown) [Compound 15]

>  <IC50>
> 10 µM

$$$$

----------
# TARGET UNDER TEST: PI3K γ (Homo sapiens, UniProt P48736)
# Construct: purchased Sigma
# Sequence (P48736 whole entry): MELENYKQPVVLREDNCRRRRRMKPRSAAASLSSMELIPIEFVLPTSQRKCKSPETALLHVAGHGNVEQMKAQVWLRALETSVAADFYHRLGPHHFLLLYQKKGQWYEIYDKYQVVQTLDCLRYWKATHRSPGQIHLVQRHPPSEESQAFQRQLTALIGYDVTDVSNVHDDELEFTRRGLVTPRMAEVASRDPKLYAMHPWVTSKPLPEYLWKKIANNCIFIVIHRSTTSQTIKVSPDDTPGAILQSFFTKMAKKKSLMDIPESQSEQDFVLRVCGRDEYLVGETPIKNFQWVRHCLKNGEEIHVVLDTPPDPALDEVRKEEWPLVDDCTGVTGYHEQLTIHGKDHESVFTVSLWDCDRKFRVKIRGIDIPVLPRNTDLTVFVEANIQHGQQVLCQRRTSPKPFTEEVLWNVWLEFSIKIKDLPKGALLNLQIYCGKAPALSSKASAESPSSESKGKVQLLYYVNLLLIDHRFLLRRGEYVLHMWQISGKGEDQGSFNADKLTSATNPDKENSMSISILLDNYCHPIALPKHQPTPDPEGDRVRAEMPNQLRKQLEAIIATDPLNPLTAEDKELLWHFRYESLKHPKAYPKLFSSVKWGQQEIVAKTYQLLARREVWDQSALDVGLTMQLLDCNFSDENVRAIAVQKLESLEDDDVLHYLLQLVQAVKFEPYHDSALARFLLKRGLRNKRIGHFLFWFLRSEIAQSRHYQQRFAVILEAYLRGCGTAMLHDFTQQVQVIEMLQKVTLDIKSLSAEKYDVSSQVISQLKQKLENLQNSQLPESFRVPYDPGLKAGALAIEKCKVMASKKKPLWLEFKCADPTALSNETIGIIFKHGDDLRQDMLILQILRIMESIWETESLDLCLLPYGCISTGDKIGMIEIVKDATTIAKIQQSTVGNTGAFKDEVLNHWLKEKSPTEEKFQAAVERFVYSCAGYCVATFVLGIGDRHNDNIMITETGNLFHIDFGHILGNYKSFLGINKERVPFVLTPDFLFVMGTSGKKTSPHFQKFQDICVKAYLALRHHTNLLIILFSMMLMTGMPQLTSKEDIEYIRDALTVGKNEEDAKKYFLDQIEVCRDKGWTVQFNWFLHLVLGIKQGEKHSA
# METHOD DESCRIPTION: In vitro IC50, PI3K γ (p110γ inhibition assay)
# Type: biochemical
# STUDY CONDITIONS: in vitro kinase assay
Reported IC50 values for a set of molecules
ATTRIBUTE MEASURED: IC50

>  <MOLECULE>
Cc1cccc2cc(C(C)Nc3ncnc4[nH]cnc34)nc(OCC3CCN(C)CC3)c12 (stereo not shown)

>  <ATTRIBUTE MEASURED>
IC50

>  <RESULT>
> 10000 nM

$$$$
>  <MOLECULE>
Cc1cccc2cc(CN(C)c3ncnc4[nH]cnc34)nc(OC3CCN(C(C)C)CC3)c12

>  <ATTRIBUTE MEASURED>
IC50

>  <RESULT>
> 10000 nM

$$$$
>  <MOLECULE>
Cc1cccc2cc([C@@H](C)Nc3ncnc4[nH]cnc34)nc(OC3CCN(S(C)(=O)=O)CC3)c12

>  <ATTRIBUTE MEASURED>
IC50

>  <RESULT>
> 10000 nM

$$$$
>  <MOLECULE>
Cc1cccc2cc(C(C)Nc3ncnc4[nH]cnc34)nc(OC3CCN(C)CC3)c12 (stereo not shown)

>  <ATTRIBUTE MEASURED>
IC50

>  <RESULT>
> 10000 nM

$$$$
>  <MOLECULE>
CC(=O)N1CCN(CCc2nc(C(C)Nc3ncnc4[nH]cnc34)cc3cccc(Cl)c23)CC1 (stereo not shown)

>  <ATTRIBUTE MEASURED>
IC50

>  <RESULT>
> 10000 nM

$$$$
>  <MOLECULE>
Cc1cccc2cc(Cn3nc(-c4cn[nH]c4)c4c(N)ncnc43)nc(N3CCOCC3)c12

>  <ATTRIBUTE MEASURED>
IC50

>  <RESULT>
< 10000 nM

$$$$
>  <MOLECULE>
Cc1cccc2cc(Cn3nc(-c4cn[nH]c4)c4c(N)ncnc43)nc(OC3CCN(C(C)C)CC3)c12

>  <ATTRIBUTE MEASURED>
IC50

>  <RESULT>
< 10000 nM

$$$$
>  <MOLECULE>
Cc1cccc2cc(Cn3nc(-c4ccc5oc(N)nc5c4)c4c(N)ncnc43)nc(OC3CCN(C(C)C)CC3)c12

>  <ATTRIBUTE MEASURED>
IC50

>  <RESULT>
< 100 nM

$$$$
>  <MOLECULE>
C[C@H](Nc1ncnc2[nH]cnc12)c1nc(OCCN2CCCC2)c2c(Cl)cccc2n1

>  <ATTRIBUTE MEASURED>
IC50

>  <RESULT>
< 10000 nM

$$$$
>  <MOLECULE>
Cc1cccc2cc(C(C)Nc3ncnc4[nH]cnc34)nc(OCC3CCN(C(C)C)CC3)c12 (stereo not shown)

>  <ATTRIBUTE MEASURED>
IC50

>  <RESULT>
> 10000 nM

$$$$
>  <MOLECULE>
C[C@H](Nc1ncnc2[nH]cnc12)c1cc2ccccc2c(N2CCN(S(C)(=O)=O)CC2)n1

>  <ATTRIBUTE MEASURED>
IC50

>  <RESULT>
> 10000 nM

$$$$
>  <MOLECULE>
C[C@H](Nc1ncnc2[nH]cnc12)c1cc2cccc(Cl)c2c(OCC2CCN(C)CC2)n1

>  <ATTRIBUTE MEASURED>
IC50

>  <RESULT>
< 10000 nM

$$$$
>  <MOLECULE>
CCN1CCC(Oc2nc(Cn3nc(-c4cn[nH]c4)c4c(N)ncnc43)cc3cccc(Cl)c23)CC1

>  <ATTRIBUTE MEASURED>
IC50

>  <RESULT>
> 10000 nM

$$$$
>  <MOLECULE>
Cc1cccc2cc(CNc3ncnc4[nH]cnc34)nc(OC3CCN(C(C)C)CC3)c12

>  <ATTRIBUTE MEASURED>
IC50

>  <RESULT>
> 10000 nM

$$$$
>  <MOLECULE>
Cc1cccc2cc(C(C)Nc3ncnc4[nH]cnc34)nc(OC3CCN(S(C)(=O)=O)CC3)c12 (stereo not shown)

>  <ATTRIBUTE MEASURED>
IC50

>  <RESULT>
< 10000 nM

$$$$
>  <MOLECULE>
Cc1cccc2cc(Cn3nc(-c4ccc5oc(N)nc5c4)c4c(N)ncnc43)nc(CCN3CCN(C)CC3)c12

>  <ATTRIBUTE MEASURED>
IC50

>  <RESULT>
< 1000 nM

$$$$

----------
# TARGET UNDER TEST: PI3K α (Homo sapiens)
# Construct: purchased Upstate
# METHOD DESCRIPTION: In vitro IC50, PI3K α (p110α/p85α inhibition assay)
# Type: biochemical
# STUDY CONDITIONS: in vitro kinase assay; read-out: IC50(nM) PI3K α
ATTRIBUTE MEASURED: IC50

>  <COMPOUND>
CCN1CCC(Oc2nc(Cn3nc(-c4cn[nH]c4)c4c(N)ncnc43)cc3cccc(Cl)c23)CC1

>  <RESULT>
> 10000 nM

$$$$
>  <COMPOUND>
CC(Nc1ncnc2[nH]cnc12)c1cc2ccccc2c(OC2CCN(C(C)C)CC2)n1 (stereo not shown)

>  <RESULT>
> 10000 nM

$$$$
>  <COMPOUND>
C[C@H](Nc1ncnc2[nH]cnc12)c1nc(N2CCOCC2)c2c(Cl)cccc2n1

>  <RESULT>
> 10000 nM

$$$$
>  <COMPOUND>
Cc1cccc2cc(Cn3nc(-c4cn[nH]c4)c4c(N)ncnc43)nc(OC3CCN(C(C)C)CC3)c12

>  <RESULT>
< 10000 nM

$$$$
>  <COMPOUND>
Cc1cccc2cc(C(C)Nc3ncnc4[nH]cnc34)nc(OC3CCN(S(C)(=O)=O)CC3)c12 (stereo not shown)

>  <RESULT>
> 10000 nM

$$$$
>  <COMPOUND>
C[C@H](Nc1ncnc2[nH]cnc12)c1cc2ccccc2c(N2CCN(S(C)(=O)=O)CC2)n1

>  <RESULT>
> 10000 nM

$$$$
>  <COMPOUND>
Nc1ncnc2c1c(-c1cn[nH]c1)nn2Cc1cc2cccc(Cl)c2c(N2CCCC2)n1

>  <RESULT>
< 10000 nM

$$$$
>  <COMPOUND>
C[C@H](Nc1ncnc2[nH]cnc12)c1cc2cccc(Cl)c2c(OCCN2CCN(S(C)(=O)=O)CC2)n1

>  <RESULT>
> 10000 nM

$$$$
>  <COMPOUND>
Cc1cccc2cc(Cn3nc(-c4cn[nH]c4)c4c(N)ncnc43)nc(N3CCN(C)CC3)c12

>  <RESULT>
< 10000 nM

$$$$
>  <COMPOUND>
C[C@H](Nc1ncnc2[nH]cnc12)c1cc2cccc(Cl)c2c(N(C)C)n1

>  <RESULT>
< 10000 nM

$$$$
>  <COMPOUND>
Cc1cccc2cc([C@H](C)Nc3ncnc4[nH]cnc34)nc(OC3CCN(S(C)(=O)=O)CC3)c12

>  <RESULT>
> 10000 nM

$$$$
>  <COMPOUND>
C[C@H](Nc1ncnc2[nH]cnc12)c1cc2cccc(Cl)c2c(N2CCN(S(C)(=O)=O)C[C@@H]2C)n1

>  <RESULT>
< 1000 nM

$$$$
>  <COMPOUND>
C[C@H](Nc1ncnc2[nH]cnc12)c1cc2cccc(Cl)c2c(N2CCN(S(C)(=O)=O)CC2)n1

>  <RESULT>
< 10000 nM

$$$$
>  <COMPOUND>
C[C@H](Nc1ncnc2[nH]cnc12)c1cc2cccc(Cl)c2c(OCC2CCN(S(C)(=O)=O)CC2)n1

>  <RESULT>
> 10000 nM

$$$$
>  <COMPOUND>
CC(Nc1ncnc2[nH]cnc12)c1cc2cccc(Cl)c2c(CCN2CCOCC2)n1 (stereo not shown)

>  <RESULT>
> 10000 nM

$$$$
>  <COMPOUND>
CN1CCC(Oc2nc(Cn3nc(-c4cn[nH]c4)c4c(N)ncnc43)cc3cccc(Cl)c23)CC1

>  <RESULT>
> 10000 nM

$$$$
